target: taurine/α-ketoglutarate dioxygenase (TauD) (Escherichia coli); assay: UV difference absorption titration of apoprotein with global regression analysis
Sequence (P37610 2-283): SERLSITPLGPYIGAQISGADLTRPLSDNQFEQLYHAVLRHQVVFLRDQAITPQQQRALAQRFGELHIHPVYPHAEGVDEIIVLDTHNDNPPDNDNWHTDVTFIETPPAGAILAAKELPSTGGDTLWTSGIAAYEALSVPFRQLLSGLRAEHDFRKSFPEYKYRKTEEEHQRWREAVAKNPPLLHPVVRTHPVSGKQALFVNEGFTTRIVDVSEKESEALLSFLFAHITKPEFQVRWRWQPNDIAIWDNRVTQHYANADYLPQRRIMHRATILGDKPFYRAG
RECORDED_METRIC: Kd

{"COMPOUND": "NCCS(=O)(=O)O [taurine]", "RECORDED_METRIC": "Kd", "MEASUREMENT": "175 µM"}
